Numbers sourced from ChEMBL document CHEMBL1136170.

# assayProtocol: Plasma clearance in fasted male Sprague dawely rats on administration of 0.5 mg/Kg i.v. of the compound
# Format: ADME, organism-based
# testContext: Sprague-Dawley, rat, iv, read-out: Clp
property: clearance (mL/min/kg)

compound	measuredValue
CCCc1cc(Oc2ccc(F)cc2)ccc1OCCCOc1cccc(C2SC(=O)NC2=O)c1 (stereo unspecified)	10.2
CCCc1cc(Oc2ccccc2)ccc1OCCCOc1cccc(C2SC(=O)NC2=O)c1 (stereo unspecified)	9.5
CCCc1cc(Oc2ccc(Cl)cc2)ccc1OCCCOc1cccc(C2SC(=O)NC2=O)c1 (stereo unspecified)	9.7
CCCc1cc(Oc2ccc(F)c(C)c2)ccc1OCCCOc1cccc(C2SC(=O)NC2=O)c1 (stereo unspecified)	10.5
CCCc1cc(Oc2ccc(C(C)C)cc2)ccc1OCCCOc1cccc(C2SC(=O)NC2=O)c1 (stereo unspecified)	6.1
CCCc1cc(Oc2ccc(Cl)c(Cl)c2)ccc1OCCCOc1cccc(C2SC(=O)NC2=O)c1 (stereo unspecified)	7.9

----------
Listed next: entries and their corresponding IC50.
# systemUnderTest: Peroxisome proliferator-activated receptor delta (Homo sapiens, UniProt Q03181)
# Sequence (Q03181 whole entry): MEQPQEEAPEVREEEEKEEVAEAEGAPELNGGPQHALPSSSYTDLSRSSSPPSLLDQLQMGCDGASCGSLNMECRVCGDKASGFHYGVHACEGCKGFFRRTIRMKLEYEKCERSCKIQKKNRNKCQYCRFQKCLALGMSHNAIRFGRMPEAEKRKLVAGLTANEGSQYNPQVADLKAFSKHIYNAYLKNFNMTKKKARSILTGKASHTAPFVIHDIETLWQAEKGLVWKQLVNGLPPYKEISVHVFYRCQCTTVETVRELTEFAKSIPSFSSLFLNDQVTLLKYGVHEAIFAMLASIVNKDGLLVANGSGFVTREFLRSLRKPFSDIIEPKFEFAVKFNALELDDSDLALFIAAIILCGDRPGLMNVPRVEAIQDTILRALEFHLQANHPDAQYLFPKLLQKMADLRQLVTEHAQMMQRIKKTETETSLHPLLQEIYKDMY

molecule	IC50
CCCc1cc(Oc2ccc(Cl)c(Cl)c2)ccc1OCCCOc1cccc(C2SC(=O)NC2=O)c1 (centres undefined)	> 50 µM
CCCc1cc(Oc2ccc(-c3ccccc3)cc2)ccc1OCCCOc1cccc(C2SC(=O)NC2=O)c1 (centres undefined)	> 50 µM
CCCc1cc(Oc2ccc(C(C)(C)C)cc2)ccc1OCCCOc1cccc(C2SC(=O)NC2=O)c1 (centres undefined)	> 50 µM
CCCc1cc(Oc2ccccc2)ccc1OCCCCOc1cccc(C2SC(=O)NC2=O)c1 (centres undefined)	3 µM
CCCc1cc(Oc2ccc(C(C)C)cc2)ccc1OCCCOc1cccc(C2SC(=O)NC2=O)c1 (centres undefined)	> 50 µM
CCCc1cc(Oc2ccc(F)c(C)c2)ccc1OCCCOc1cccc(C2SC(=O)NC2=O)c1 (centres undefined)	> 50 µM
CCCc1cc(Oc2ccc(Cl)c(C)c2)ccc1OCCCOc1cccc(C2SC(=O)NC2=O)c1 (centres undefined)	> 50 µM
CCCc1cc(Oc2ccc(O)cc2)ccc1OCCCOc1cccc(C2SC(=O)NC2=O)c1 (centres undefined)	3.8 µM
CCCc1cc(Oc2ccc(C3CCCC3)cc2)ccc1OCCCOc1cccc(C2SC(=O)NC2=O)c1 (centres undefined)	> 50 µM
CCCc1cc(Oc2ccc(Cl)cc2)ccc1OCCCOc1cccc(C2SC(=O)NC2=O)c1 (centres undefined)	> 50 µM
CCCc1cc(Oc2ccc(OC)cc2)ccc1OCCCOc1cccc(C2SC(=O)NC2=O)c1 (centres undefined)	> 10 µM
O=C1NC(=O)C(c2cccc(OCCCOc3ccc(Oc4ccccc4)cc3)c2)S1 (centres undefined)	0.19 µM
CCCc1cc(Oc2ccc(F)cc2)ccc1OCCCOc1cccc(C2SC(=O)NC2=O)c1 (centres undefined)	> 5 µM
CCCc1cc(Oc2ccc(CC(C)C)cc2)ccc1OCCCOc1cccc(C2SC(=O)NC2=O)c1 (centres undefined)	> 50 µM

----------
Each entry below carries its reported half-life.
# assayProtocol: Half life was measured in fasted male administration of compound 0.5 mg/Kg i.v.
# Assay type: ADME, organism-based
# testContext: rat, in vivo, iv

compound	unitTag	half-life
CCCc1cc(Oc2ccccc2)ccc1OCCCOc1cccc(C2SC(=O)NC2=O)c1 (stereo unspecified)	h	1.5
CCCc1cc(Oc2ccc(Cl)cc2)ccc1OCCCOc1cccc(C2SC(=O)NC2=O)c1 (stereo unspecified)	h	2.9
CCCc1cc(Oc2ccc(C(C)C)cc2)ccc1OCCCOc1cccc(C2SC(=O)NC2=O)c1 (stereo unspecified)	h	3.3
CCCc1cc(Oc2ccc(F)c(C)c2)ccc1OCCCOc1cccc(C2SC(=O)NC2=O)c1 (stereo unspecified)	h	3.3
CCCc1cc(Oc2ccc(F)cc2)ccc1OCCCOc1cccc(C2SC(=O)NC2=O)c1 (stereo unspecified)	h	1.3
CCCc1cc(Oc2ccc(Cl)c(Cl)c2)ccc1OCCCOc1cccc(C2SC(=O)NC2=O)c1 (stereo unspecified)	h	2.2

----------
# assayProtocol: Bioavailability in fasted male administration of 2 mg/Kg of compound p.o.
# Assay type: ADME, organism-based
# testContext: rat, in vivo, po

molecule	bioavailability / %
CCCc1cc(Oc2ccccc2)ccc1OCCCOc1cccc(C2SC(=O)NC2=O)c1 (stereo unspecified)	62
